Target: Procathepsin L (Homo sapiens, UniProt P07711)
Sequence (P07711 whole entry): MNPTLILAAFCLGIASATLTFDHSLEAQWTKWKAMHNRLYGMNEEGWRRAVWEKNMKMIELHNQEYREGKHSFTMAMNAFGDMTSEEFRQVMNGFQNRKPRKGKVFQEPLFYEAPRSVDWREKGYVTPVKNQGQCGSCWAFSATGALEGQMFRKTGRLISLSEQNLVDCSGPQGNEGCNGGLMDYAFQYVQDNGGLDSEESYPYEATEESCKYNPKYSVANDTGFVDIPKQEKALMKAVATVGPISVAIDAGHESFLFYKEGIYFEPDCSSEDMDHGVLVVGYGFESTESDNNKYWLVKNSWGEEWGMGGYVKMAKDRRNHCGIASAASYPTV
Test: Inhibition of human recombinant cathepsin L using Z-LR-AMC as substrate by fluorescence assay
MEASURED_QUANTITY: IC50 (nM)

I. C[C@@H]1CC[C@H](NC(=O)[C@H](CC2(C)CCCCC2)NC(=O)c2ccco2)C(=O)CN1S(=O)(=O)c1ccccn1
II. C[C@@H]1CC[C@H](NC(=O)[C@H](CC2CCCCC2)NC(=O)c2ccco2)C(=O)CN1S(=O)(=O)c1ccccn1
III. C[C@@H]1CC[C@H](NC(=O)[C@H](CC2(C)CCCCC2)NC(=O)c2ccco2)C(=O)CN1C(=O)c1ccccn1
Arrange these 3 molecules in increasing order of IC50. # the answer lists labels in the order requested
II, I, III

Source listed as ChEMBL document CHEMBL1806418.
